Below: a set of entries, each annotated with reported IC50.
Study system: mitogen-activated protein kinase-activated protein kinase 2 (human MK2) (human, UniProt P49137 46-400)
Sequence (P49137 46-400): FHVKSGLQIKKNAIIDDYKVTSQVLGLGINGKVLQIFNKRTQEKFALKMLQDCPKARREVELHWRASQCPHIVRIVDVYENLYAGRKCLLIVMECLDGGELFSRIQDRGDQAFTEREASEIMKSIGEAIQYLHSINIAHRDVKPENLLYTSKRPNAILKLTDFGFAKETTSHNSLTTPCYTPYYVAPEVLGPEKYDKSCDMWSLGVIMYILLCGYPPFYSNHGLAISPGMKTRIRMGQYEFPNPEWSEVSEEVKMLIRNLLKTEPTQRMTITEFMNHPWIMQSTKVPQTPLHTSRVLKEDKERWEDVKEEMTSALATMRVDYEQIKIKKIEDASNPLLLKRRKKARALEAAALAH
Run description: kinase inhibition, radiometric assay

In [3]: df
Out[3]:
          binder      val
0  KKKALNRQLGVAA  31.2 µM

Here is the next item to consider.
Reported IC50 for YARAAARQARA : what is it?
> 1000 µM
